Target: Grb2 SH2 (UniProt P62993)
Sequence (P62993 whole entry, looked up, the tested form may be a part): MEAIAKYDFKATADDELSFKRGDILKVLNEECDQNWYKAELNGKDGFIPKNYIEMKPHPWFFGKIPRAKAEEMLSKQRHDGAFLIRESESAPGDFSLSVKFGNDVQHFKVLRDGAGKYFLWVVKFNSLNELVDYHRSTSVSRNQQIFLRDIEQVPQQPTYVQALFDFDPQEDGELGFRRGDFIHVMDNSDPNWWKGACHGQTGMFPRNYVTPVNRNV
Assay: SH2 binding enrichment of the phosphorylated peptide, bacterial display (enrichment ratio); higher = better substrate or ligand; peptides without Tyr show the background;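 also: peptide library displayed on the E. coli surface as eCPX fusions, selected cells deep-sequenced, score is each peptide's frequency after selection divided by its frequency in the input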
Tag: met if measured SH2 binding enrichment is not below 0.7, not met if it is.

- ENTRY_SEQUENCE: "NWGSPYKSDGC [ZNF347_Y261_N264D]"
  ASSIGNED_CLASS: "met"
- ENTRY_SEQUENCE: "MAYDRYVAICS [OR8D4_Y123_C120Y]"
  ASSIGNED_CLASS: "met"
- ENTRY_SEQUENCE: "KKKKQYKGKYL [CASK_Y708_D710G]"
  ASSIGNED_CLASS: "not met"
- ENTRY_SEQUENCE: "FQLENYCNGGG [INS_Y108_YF]"
  ASSIGNED_CLASS: "met"
- ENTRY_SEQUENCE: "KPGVNYFFQVS"
  ASSIGNED_CLASS: "met"
- ENTRY_SEQUENCE: "VTVLDYDKTGK [SYT1_Y365_I368T]"
  ASSIGNED_CLASS: "met"
